# Tested on: HepG2
# PROTOCOL NOTES: relative viability EC50 (midpoint between 100% and the lowest measured viability); higher = less toxic
# MEASUREMENT SETUP: 72 h
EXPERIMENTAL ENDPOINT: relative viability EC50

Please review the entries below; each comes with its answer.
COMPOUND	relative viability EC50
O=C(CCCCCCCC(=O)NCCO)NCCO [adelmidrol]	> 10 µM
COCCOc1cnc2ccn([C@H](C)c3nnc4c(F)cc(-c5cnn(C)c5)cn34)c(=O)c2c1 [AMG-337]	> 10 µM
CCC[C@H](NC(=O)/C(C#N)=C/c1cccc(Br)n1)c1ccccc1 [WP1130]	3.18 µM
NCCCC[C@@H]1NC(=O)[C@@H](Cc2c[nH]c3ccccc23)NC(=O)[C@H](c2ccccc2)NC(=O)[C@@H]2C[C@@H](OC(=O)NCCN)CN2C(=O)[C@H](Cc2ccccc2)NC(=O)[C@H](Cc2ccc(OCc3ccccc3)cc2)NC1=O [pasireotide]	> 10 µM
CN1CCCN=C1/C=C/c1cccs1 [pyrantel-pamoate]	> 10 µM
CCc1nc(C(N)=O)c(Nc2ccc(N3CCC(N4CCN(C)CC4)CC3)c(OC)c2)nc1NC1CCOCC1 [gilteritinib]	1.36 µM

QUERY: Request the reported relative viability EC50 associated with Cc1ccccc1C(=O)Nc1ccc(C(=O)N2CCCC(N(C)C)c3ccccc32)cc1 (stereo not drawn) [mozavaptan]
RESULT: 3.1 µM

QUERY: Request the reported relative viability EC50 associated with c1ccc(COCCCc2c[nH]cn2)cc1 [proxyfan]
RESULT: > 10 µM

QUERY: Request the reported relative viability EC50 associated with CNC(=O)CN1CCC(Oc2cc3c(Nc4cccc(Cl)c4F)ncnc3cc2OC)CC1 [AZD8931]
RESULT: > 10 µM

QUERY: Request the reported relative viability EC50 associated with COc1cc(/C=C/C(N)=O)cc(OC)c1OC [cintriamide]
RESULT: > 10 µM

QUERY: Request the reported relative viability EC50 associated with CC1=C(CCC(=O)O)c2cc3[nH]c(cc4nc(cc5[nH]c(cc1n2)c(C)c5C(C)O)C(C)=C4C(C)O)c(C)c3CCC(=O)O (stereo not drawn) [hematoporphyrin]
RESULT: > 10 µM

QUERY: Request the reported relative viability EC50 associated with "Cc1nc2ccc(-n3ncc(C(=O)c4cc5ccccc5[nH]4)c3N)cc2[nH]1"
RESULT: > 10 µM

QUERY: Request the reported relative viability EC50 associated with Cc1cc(N2CCCCC2)nc2ccccc12 [ML204]
RESULT: > 10 µM

====

Listed below: cell viability values for each entry.
# System: U2OS
# PROTOCOL NOTES: cell viability relative to DMSO; higher = less toxic
# MEASUREMENT SETUP: 72 h; 10000 nM
Kindly provide the numeric value in % only, without the unit symbol.

Please review the entries below; each comes with its answer.
COMPOUND	TARGET DESC	RESULT UNITS	cell viability
Cc1nn(C)c2c1C(c1cccc(Cl)c1)=NCCN2	U2OS	%	96.9
COc1c(C)c(C(=O)c2ccc(N)c(C(=O)O)c2)n2ccccc12	U2OS	%	90.4
CC(C)Cn1cnc2c(N)nc3ccccc3c21	U2OS	%	105

Lab note: next compound to report on.
QUERY: Request the reported cell viability associated with "N=C(N)S/C=C\C(=O)O"
RESULT: 101

====

# System: Caco-2
# PROTOCOL NOTES: cell viability relative to DMSO; higher = less toxic
# MEASUREMENT SETUP: 72 h; 1 nM
Listed below: cell viability values for each entry.
Kindly provide the numeric value in % only, without the unit symbol.

Please review the entries below; each comes with its answer.
COMPOUND	cell viability (%)
COc1cc(C(=O)N(CC[C@H]2CCCN2C)C/C(C)=C/c2ccccc2F)cc(OC)c1OC (racemic)	97.4
COc1ccccc1S(=O)(=O)Nc1ccc2c(c1)CN(C)C(=O)N2	102
CN(C)CCCCC(=O)Nc1ccc(NC(=S)NC(=O)c2ccc(C(C)(C)C)cc2)cc1	92.9

QUERY: Request the reported cell viability associated with "Cc1nc(C#Cc2ccnc(Cl)c2)c(C)n1-c1ccc(OC(F)(F)F)cc1"
RESULT: 93.9

QUERY: Request the reported cell viability associated with "Clc1cccc(Cl)c1NC1=NCCN1"
RESULT: 95.3

QUERY: Request the reported cell viability associated with "CC(=O)c1ccc(NS(C)(=O)=O)c(Oc2ccc(F)cc2F)c1"
RESULT: 99

QUERY: Request the reported cell viability associated with "COCCOc1cnc2ccn([C@H](C)c3nnc4c(F)cc(-c5cnn(C)c5)cn34)c(=O)c2c1"
RESULT: 104

QUERY: Request the reported cell viability associated with "Nc1nc(=O)c2sc(=O)n([C@@H]3O[C@H](CO)[C@@H](O)[C@H]3O)c2[nH]1"
RESULT: 95.1

====

# Test system: A549-ACE2
# PROTOCOL NOTES: drug-induced phospholipidosis relative to tamoxifen; higher = more phospholipidosis
# MEASUREMENT SETUP: 30 µM; 48 h
Listed below: drug-induced phospholipidosis values for each entry.
Kindly provide the numeric value in % only, without the unit symbol.

Please review the entries below; each comes with its answer.
[Cl][Ru-]([Cl])([Cl])[Cl].[Na+].c1ccc2[nH]ncc2c1.c1ccc2[nH]ncc2c1 1.39
Cc1csc(-c2nnc(Nc3ccc(Oc4ncccc4-c4ccnc(N)n4)cc3)c3ccccc23)c1 7.09
Cn1c(NC[C@@H](N)Cc2ccccc2)nc(-c2ccncc2)c(-c2ccc3ccccc3c2)c1=O 125

QUERY: // lookup drug-induced phospholipidosis | system=A549-ACE2 | key= "Cc1[nH]cnc1-c1ccc(Cl)cc1"
RESULT: 11.9

====

# Test system: Caco-2
# PROTOCOL NOTES: cell viability relative to DMSO; higher = less toxic
# MEASUREMENT SETUP: 72 h; 100 nM
Listed below: cell viability values for each entry.
Kindly provide the numeric value in % only, without the unit symbol.

MOLECULE	TARGET DESC	EXPERIMENTAL ENDPOINT	DATA VALUE
Cc1nc2ccc(-n3ncc(C(=O)c4cc5ccccc5[nH]4)c3N)cc2[nH]1	Caco-2	cell viability	92.9

QUERY: // lookup cell viability | system=Caco-2 | key= "Cc1cnc(NC(=O)Nc2cc(Br)c(C)cc2OC[C@@H]2CNCCO2)cn1"
RESULT: 96.9

QUERY: // lookup cell viability | system=Caco-2 | key= O=C(Nc1cc(Oc2cc(F)c(NC(=O)C3(C(=O)Nc4ccc(F)cc4)CC3)cc2F)ccn1)C1CC1 [altiratinib]
RESULT: 104

QUERY: // lookup cell viability | system=Caco-2 | key= COc1ccc2[nH]c3c(-c4cccc5ccccc45)nccc3c2c1 [SP-141]
RESULT: 99.2

QUERY: // lookup cell viability | system=Caco-2 | key= CC(C)=CCC/C(C)=C/CC/C(C)=C/CCC(=O)OC/C=C(\C)CCC=C(C)C [geranyl-farnesylacetate]
RESULT: 106

QUERY: // lookup cell viability | system=Caco-2 | key= Cc1cc(C2CCCCC2)n(O)c(=O)c1 [ciclopirox]
RESULT: 96

QUERY: // lookup cell viability | system=Caco-2 | key= COc1ccc(Cc2nccc3cc(OC)c(OC)cc23)cc1OC [papaverine]
RESULT: 95.8

QUERY: // lookup cell viability | system=Caco-2 | key= c1ccc(CNc2ncnc3[nH]cnc23)cc1 [6-benzylaminopurine]
RESULT: 90.8

QUERY: // lookup cell viability | system=Caco-2 | key= O=C(c1ccc(Cl)o1)N1CC2CNCC2C1 (stereo not given) [AZD1446]
RESULT: 97

QUERY: // lookup cell viability | system=Caco-2 | key= NCC(=O)Nc1ccc(-n2nc(C(F)(F)F)cc2-c2ccc3c(ccc4ccccc43)c2)cc1 [AR-12]
RESULT: 87.9

====

# System: Caco-2
# PROTOCOL NOTES: relative viability EC50 (midpoint between 100% and the lowest measured viability); higher = less toxic
# MEASUREMENT SETUP: 72 h
EXPERIMENTAL ENDPOINT: relative viability EC50

Please review the entries below; each comes with its answer.
COMPOUND	relative viability EC50
COc1cc(C=O)ccc1O [vanillin]	> 10 µM
CCOC(=O)[C@H]1O[C@@H]1C(=O)N[C@@H](CC(C)C)C(=O)NCCC(C)C [aloxistatin]	> 10 µM
CC(C)Cn1cnc2c(N)nc3ccccc3c21 [imiquimod]	> 10 µM
CC1(CN2CCC(n3c(=O)[nH]c4ccccc43)CC2)OCc2ccccc2-n2cccc21 (stereo not drawn) [zaldaride]	> 10 µM
CNC(=O)c1cc(Oc2ccc(NC(=O)Nc3ccc(Cl)c(C(F)(F)F)c3)cc2)ccn1 [sorafenib]	3.04 µM

Lab note: next compound to report on.
QUERY: Request the reported relative viability EC50 associated with Cc1nc(Nc2ncc(C(=O)Nc3c(C)cccc3Cl)s2)cc(N2CCN(CCO)CC2)n1 [dasatinib]
RESULT: 0.201 µM
